Numbers sourced from patent US20130184280A1.

measurement-target: VEGFR2 kinase (Homo sapiens)
Construct: purchased InVitrogen
Sequence (P35968 20-1356): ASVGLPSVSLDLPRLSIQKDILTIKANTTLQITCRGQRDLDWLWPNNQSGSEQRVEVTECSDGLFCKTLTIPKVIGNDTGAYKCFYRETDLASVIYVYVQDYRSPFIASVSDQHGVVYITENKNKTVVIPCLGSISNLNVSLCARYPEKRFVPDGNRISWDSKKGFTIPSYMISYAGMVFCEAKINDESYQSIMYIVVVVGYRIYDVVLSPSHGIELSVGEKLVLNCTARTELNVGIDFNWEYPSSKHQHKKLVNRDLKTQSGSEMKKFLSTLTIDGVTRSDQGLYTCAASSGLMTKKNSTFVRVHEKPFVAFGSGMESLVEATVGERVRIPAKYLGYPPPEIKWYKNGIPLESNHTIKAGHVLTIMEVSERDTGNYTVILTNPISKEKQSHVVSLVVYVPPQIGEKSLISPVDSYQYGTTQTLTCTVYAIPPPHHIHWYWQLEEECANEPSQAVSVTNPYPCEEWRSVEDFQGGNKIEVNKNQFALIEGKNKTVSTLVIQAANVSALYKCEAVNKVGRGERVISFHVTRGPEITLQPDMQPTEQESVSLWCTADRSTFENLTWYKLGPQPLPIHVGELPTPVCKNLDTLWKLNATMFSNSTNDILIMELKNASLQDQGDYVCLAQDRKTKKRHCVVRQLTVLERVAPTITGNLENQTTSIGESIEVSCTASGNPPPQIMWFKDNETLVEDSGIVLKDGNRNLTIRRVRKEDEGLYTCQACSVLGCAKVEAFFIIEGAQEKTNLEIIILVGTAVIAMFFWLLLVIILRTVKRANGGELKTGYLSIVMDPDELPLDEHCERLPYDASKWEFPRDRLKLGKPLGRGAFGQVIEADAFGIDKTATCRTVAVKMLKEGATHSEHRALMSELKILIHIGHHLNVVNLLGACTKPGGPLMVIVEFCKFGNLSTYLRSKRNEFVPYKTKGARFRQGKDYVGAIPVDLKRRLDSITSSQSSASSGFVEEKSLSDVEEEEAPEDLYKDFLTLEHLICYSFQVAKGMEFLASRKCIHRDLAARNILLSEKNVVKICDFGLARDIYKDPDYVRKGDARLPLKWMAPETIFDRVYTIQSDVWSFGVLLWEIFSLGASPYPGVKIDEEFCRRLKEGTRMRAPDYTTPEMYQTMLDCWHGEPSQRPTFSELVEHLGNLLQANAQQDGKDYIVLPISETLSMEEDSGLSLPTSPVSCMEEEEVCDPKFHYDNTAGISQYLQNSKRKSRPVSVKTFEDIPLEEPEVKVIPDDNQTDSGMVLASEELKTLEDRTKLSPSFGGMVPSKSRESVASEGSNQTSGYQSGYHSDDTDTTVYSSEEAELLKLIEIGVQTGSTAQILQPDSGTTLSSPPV
test-name: In Vitro VEGFR2 Kinase Assay
Assay type: biochemical
applied-conditions: FP; CSKtide substrate, 60 minutes at room temperature
measure: log10 of IC50 (log10 of the value in nM)
Log scale reminder: IC50 in nM, then log10 taken.

Guide cases for log10 of IC50, answers given:
structure-notation: Nc1ncncc1-c1nc(-c2cccc(NC(=O)Nc3ccccc3C(F)(F)F)c2)cs1
log10 of IC50: 1.70
//
structure-notation: Nc1ncncc1-c1nc(-c2cccc(NC(=O)c3cccc(CN4CCOCC4)c3)c2)cs1
log10 of IC50: 2.70
//
structure-notation: Nc1ncncc1-c1nc(-c2cccc(NC(=O)N3CCCCC3)c2)cs1
log10 of IC50: 2.30
//
structure-notation: Nc1ncncc1-c1nc(-c2cccc(NC(=O)c3ccccc3)c2)cs1
log10 of IC50: 1.30
//
structure-notation: Cc1nc(-c2cccc(NC(=O)Nc3cccc(-c4csc(-c5cncnc5N)n4)c3)c2)no1
log10 of IC50: 1.95

Asked: Which log10 of IC50 is reported for this molecule? Nc1ncncc1-c1nc(-c2cccc(NC(=O)C3CCCCC3)c2)cs1
Given back: 1.30

Asked: Quick one: log10 of IC50 for Nc1ncncc1-c1nc(-c2cccc(NC(=O)Nc3cccc(CN4CCOCC4)c3)c2)cs1 ?
Given back: 1.30

Asked: log10 of IC50 lookup needed for Nc1ncncc1-c1nc(-c2cccc(NC(=O)c3ccccn3)c2)cs1 , thanks.
Given back: 2.30
